# TARGET SYSTEM: UniProtKB P01116
# Sequence (P01116 whole entry): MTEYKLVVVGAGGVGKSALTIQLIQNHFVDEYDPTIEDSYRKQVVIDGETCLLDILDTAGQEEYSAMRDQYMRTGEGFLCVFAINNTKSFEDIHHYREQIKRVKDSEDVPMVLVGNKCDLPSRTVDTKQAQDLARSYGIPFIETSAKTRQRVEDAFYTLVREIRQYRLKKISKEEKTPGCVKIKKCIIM
# TEST SUMMARY: Binding to KRAS by surface plasmon resonance (SPR), Single Cycle Kinetics
# CONDITION SET: SPR, Single Cycle Kinetics, GDP-bound KRAS wild-type protein; read-out: KRAS KD
MEASURED PARAMETER: Kd

{"columns": ["MOLECULE SMILES", "TARGET SYSTEM", "Kd"],
 "data": [
  ["CC[C@H](C)[C@@H]1NC(=O)[C@H](CC(F)F)N(C)C(=O)C[C@@H](C(=O)N(C)CC)N(C)C(=O)[C@H](C2CCCC2)N(C)C(=O)C2(CC(C)(C)C2)NC(=O)[C@@H]2C[C@H](C)CN2C(=O)[C@H](CCc2ccc(C(F)(F)F)c(Cl)c2)NC(=O)CN(C)C(=O)[C@H](Cc2ccc(C)cc2)N2CC/C=C\\C[C@@H](C2=O)N(C)C(=O)CN(C)C1=O", "UniProtKB P01116", "0.21 nM"],
  ["CC[C@H](C)[C@@H]1NC(=O)[C@H](CC)N(C)C(=O)C[C@@H](C(=O)N(C)C)N(C)C(=O)[C@H](C2CCCC2)N(C)C(=O)C2(CCC2)NC(=O)[C@H](C)NC(=O)[C@H](CCc2cc(F)c(C(F)(F)F)c(F)c2)NC(=O)CN(C)C(=O)[C@H](Cc2ccc(C(F)(F)F)cc2)N2CC/C=C\\C[C@@H](C2=O)N(C)C(=O)CN(C)C1=O", "UniProtKB P01116", "0.15 nM"]
]}

So what does the record say about Kd for CCCN(C)C(=O)[C@@H]1CC(=O)N(C)[C@@H](COC)C(=O)N[C@@H]([C@@H](C)CC)C(=O)N(C)CC(=O)N(C)[C@H]2C/C=C\CCN(C2=O)[C@@H](Cc2ccc(C(F)(F)F)cc2)C(=O)N(C)CC(=O)N[C@@H](CCc2cc(F)c(C(F)(F)F)c(F)c2)C(=O)N2C[C@H](F)C[C@H]2C(=O)NC2(CC(C)(C)C2)C(=O)N(C)[C@@H](C2CCCC2)C(=O)N1C ? 0.041 nM
